List of IC50 values.
study target: His-GST-TVMV-hRIPK1(1-324) (Homo sapiens (Human))
protocol details: RIPK1 HTRF Binding Assay
protocol conditions: HTRF binding, 1 h at rt; read-out: RIPK1 (IC50)
Value expressed in nM; do not type the unit.

These recorded examples may help you get a feel for the data.
CC(=O)Nc1cn2nc(-c3cc(C(=O)NCc4cc(C(=O)N5CCCC5(C)C)ccc4F)c(C)cc3F)ccc2n1 = 13
CC(=O)OCC(=O)Nc1cn2nc(-c3cnc(C)c(C(=O)N[C@H](C)c4cc(OC(F)(F)F)ccc4F)c3)ccc2n1 = 13

Query: GET /values?readout=IC50&item= `CC(=O)Nc1cn2nc(-c3cnc(C)c(C(=O)NCc4cccc(F)c4OCC4CC4)c3)ccc2n1`
Response: 8

* * *

study target: His-GST-TVMV-hRIPK1(1-324) (Homo sapiens (Human), UniProt Q13546)
Sequence (Q13546 1-324): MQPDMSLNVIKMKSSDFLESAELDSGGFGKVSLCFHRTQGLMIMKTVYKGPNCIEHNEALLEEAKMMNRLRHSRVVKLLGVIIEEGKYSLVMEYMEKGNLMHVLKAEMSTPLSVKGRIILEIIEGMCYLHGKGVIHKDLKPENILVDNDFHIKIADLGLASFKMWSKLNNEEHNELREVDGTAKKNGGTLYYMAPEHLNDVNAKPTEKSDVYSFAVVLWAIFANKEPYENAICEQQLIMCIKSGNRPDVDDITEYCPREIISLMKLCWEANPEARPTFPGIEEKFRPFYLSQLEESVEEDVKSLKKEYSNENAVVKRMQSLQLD
protocol details: RIPK1 HTRF Binding Assay
protocol conditions: HTRF binding, 1 h at rt; read-out: RIPK1 (IC50)
List of pIC50 values.
Scale note: pIC50 = -log10(concentration in M).

These recorded examples may help you get a feel for the data.
CC(=O)Nc1cn2nc(-c3ccc(Cl)c(C(=O)NCc4cc(F)ccc4C(=O)N4CCC(F)(F)C4)c3)ccc2n1 [Example 387] = 8.10
CC(=O)Nc1cn2nc(-c3ccc(Cl)c(C(=O)NCc4cc(-c5cnn(C)c5)ccc4F)c3F)ccc2n1 [Example 389] = 8.40
CC(=O)Nc1cn2nc(-c3ccc(C)c(C(=O)NCC[C@@H](O)c4ccc(Cl)cc4)c3)ccc2n1 [Example 397] = 8.52
[2H]C([2H])([2H])[C@H](NC(=O)c1ccc(C)c(-c2ccc3nc(NC(C)=O)cn3n2)c1F)c1cc(OC(F)(F)F)ccc1F [Example 429] = 8.05

Consider now this further compound.
Query: GET /values?readout=pIC50&item= Cc1ncc(-c2ccc3nc(NC(=O)CN4CCC(F)(F)CC4)cn3n2)cc1C(=O)N[C@H](C)c1cc(OC(F)(F)F)ccc1F [Example 334]
Response: 7.82

* * *

study target: His-GST-TVMV-hRIPK1(1-324) (Homo sapiens (Human), UniProt Q13546)
protocol details: RIPK1 HTRF Binding Assay
protocol conditions: HTRF binding, 1 h at rt; read-out: RIPK1 (IC50)
Where a name gives a salt, the structure may show the parent alone.
observable: log10 of IC50 (log10 of the value in nM)
log10 IC50, nM

Query: GET /values?readout=log10 of IC50&item= [2H]C([2H])(Oc1c(F)cc(F)cc1CNC(=O)c1cc(-c2ccc3nc(NC(C)=O)cn3n2)cnc1Cl)C1CC1 [Example 266, TFA]
Response: 0.48

* * *

study target: His-GST-TVMV-hRIPK1(1-324) (Homo sapiens (Human))
protocol details: RIPK1 HTRF Binding Assay
protocol conditions: HTRF binding, 1 h at rt; read-out: RIPK1 (IC50)
List of IC50 values.
Value expressed in nM; do not type the unit.

These recorded examples may help you get a feel for the data.
CC(=O)Nc1cn2nc(-c3cnc(C)c(C(=O)NCc4ccccc4OC4CCCC4)c3)ccc2n1 [Example 225] = 5
[2H]C([2H])([2H])[C@H](NC(=O)c1cc(-c2ccc3nc(NC(C)=O)cn3n2)cnc1C)c1cc(OC(F)(F)F)ccc1F [Example 198] = 16
COc1ncc(-c2ccc3nc(NC(C)=O)cn3n2)cc1C(=O)NC(C)c1cc(F)cc(F)c1OCC1CC1 (stereo not drawn) [Example 133] = 23

Consider now this further compound.
Query: GET /values?readout=IC50&item= [2H]C([2H])(NC(=O)c1cc(-c2ccc3nc(NC(C)=O)cn3n2)c(C)nc1C)c1cc(C(F)(F)F)ccc1F [Example 75]
Response: 11
